- Test Protocol: HMC pharmacokinetics i.v. and i.p., mice
- Assay type: in vivo, female BALB/c mice
- Particulars: female, BALB/c, mouse, serum, iv, 50 mg/kg, 50 mg/kg in 20% HPBCD, 0.25 hr

>  <Molecule>
COc1ccc(C2c3ccc(O)cc3OCC2c2ccc(O)cc2)cc1 (stereo not shown)

>  <concentration at 0.25 hr / µM>
1070

$$$$

----------
- Test Protocol: HMC pharmacokinetics i.v. and i.p., mice
- Type: in vivo, female BALB/c mice
- Particulars: female, BALB/c, mouse, serum, ip, 50 mg/kg, 0.50 hr

>  <Molecule>
COc1ccc(C2c3ccc(O)cc3OCC2c2ccc(O)cc2)cc1 (stereo not shown)

>  <Readout Unit>
µM

>  <concentration at 0.5 h>
31.8

$$$$

----------
- Test Protocol: HMC pharmacokinetics i.v. and i.p., mice
- Format: in vivo, female BALB/c mice
- Particulars: female, BALB/c, mouse, serum, iv, 50 mg/kg, i.v., 1 hr post administration; read-out: serum concentration

>  <Molecule>
COc1ccc(C2c3ccc(O)cc3OCC2c2ccc(O)cc2)cc1 (stereo not shown)

>  <concentration at 1 hr>
3.98 µM

$$$$

----------
- System: NCI-H460 (Lung)
- Test Protocol: Proliferation assay (MTT)
- Type: cell-based
- Particulars: Table 2.1; Lung NCI-H460

>  <Compound>
N.N.[Cl][Pt][Cl] [Cisplatin, cisplatin, reference compound]

>  <IC50>
22.3 µM

$$$$
